Recorded values, source patent US20240309103A1.

# target_or_test_system: T1, human NPR1 extracellular domain expressed with a C-terminal myc-myc-hexahistidine (hNPR1-MMH) (human, UniProt P16066 33-473)
# T1 construct: also called hNPR.mmh; monomeric human NPR1
# T1 sequence (P16066 other isoform, or with tags, fused parts or gaps): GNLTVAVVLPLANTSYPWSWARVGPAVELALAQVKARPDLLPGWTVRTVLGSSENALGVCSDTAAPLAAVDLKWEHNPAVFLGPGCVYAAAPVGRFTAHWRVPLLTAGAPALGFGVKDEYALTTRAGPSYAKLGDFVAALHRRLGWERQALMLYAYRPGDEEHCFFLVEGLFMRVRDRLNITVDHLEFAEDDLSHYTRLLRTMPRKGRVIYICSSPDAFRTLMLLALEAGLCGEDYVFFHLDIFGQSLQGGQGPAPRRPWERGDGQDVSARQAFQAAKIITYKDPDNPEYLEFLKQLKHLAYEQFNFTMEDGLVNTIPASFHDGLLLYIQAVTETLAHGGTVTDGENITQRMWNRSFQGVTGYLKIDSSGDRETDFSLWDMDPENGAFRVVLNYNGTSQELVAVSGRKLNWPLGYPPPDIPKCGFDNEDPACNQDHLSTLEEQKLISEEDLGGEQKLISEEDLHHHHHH
# assay_remarks: SPR, mAb captured, 37 C
pKd: −log10 of the molar value.
Classify as follows. Reported pKd greater than or equal to 9: Y. Reported pKd below: N.

binder: mAb25497 (antibody, V domains shown) VH: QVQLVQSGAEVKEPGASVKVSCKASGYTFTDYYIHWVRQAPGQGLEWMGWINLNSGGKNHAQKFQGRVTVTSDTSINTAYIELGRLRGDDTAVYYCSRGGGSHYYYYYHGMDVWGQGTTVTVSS VL: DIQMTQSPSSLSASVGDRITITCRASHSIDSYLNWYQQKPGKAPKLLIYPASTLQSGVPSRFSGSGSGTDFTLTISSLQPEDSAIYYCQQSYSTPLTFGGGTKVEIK
cat: N
//
binder: mAb22033 (antibody, V domains shown) VH: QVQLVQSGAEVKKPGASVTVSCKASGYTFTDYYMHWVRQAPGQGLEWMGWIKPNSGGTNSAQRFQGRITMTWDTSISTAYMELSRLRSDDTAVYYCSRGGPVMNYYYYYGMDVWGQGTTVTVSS VL: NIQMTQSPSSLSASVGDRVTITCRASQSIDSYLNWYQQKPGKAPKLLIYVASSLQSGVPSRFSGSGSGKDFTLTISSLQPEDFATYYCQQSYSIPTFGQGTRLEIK
cat: N
//
binder: mAb25479 (antibody, V domains shown) VH: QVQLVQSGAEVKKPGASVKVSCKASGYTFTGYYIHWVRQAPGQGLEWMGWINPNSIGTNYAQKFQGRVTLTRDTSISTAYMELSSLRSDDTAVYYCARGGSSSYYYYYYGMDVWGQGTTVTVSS VL: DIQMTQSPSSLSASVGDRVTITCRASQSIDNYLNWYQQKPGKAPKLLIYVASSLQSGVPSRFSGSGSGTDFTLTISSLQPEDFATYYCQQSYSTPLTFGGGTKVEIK
cat: N
//
binder: mAb25491 (antibody, V domains shown) VH: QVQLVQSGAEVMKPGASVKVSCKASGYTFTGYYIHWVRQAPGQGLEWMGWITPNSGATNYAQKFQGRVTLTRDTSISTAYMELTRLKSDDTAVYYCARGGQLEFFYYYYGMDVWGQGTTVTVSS VL: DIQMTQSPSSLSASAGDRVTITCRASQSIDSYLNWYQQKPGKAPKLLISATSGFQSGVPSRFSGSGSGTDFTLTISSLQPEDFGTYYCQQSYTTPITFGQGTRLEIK
cat: N
//
binder: mAb25508 (antibody, V domains shown) VH: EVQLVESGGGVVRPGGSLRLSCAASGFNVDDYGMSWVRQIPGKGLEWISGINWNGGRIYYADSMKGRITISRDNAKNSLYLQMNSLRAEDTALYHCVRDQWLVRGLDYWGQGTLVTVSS VL: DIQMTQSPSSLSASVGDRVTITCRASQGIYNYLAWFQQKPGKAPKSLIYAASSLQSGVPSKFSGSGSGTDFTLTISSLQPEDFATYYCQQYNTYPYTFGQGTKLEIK
cat: Y
